Recorded pIC50 by entry
molecular target: Vascular endothelial growth factor receptor 2 (Homo sapiens); experiment: Inhibition of human phosphorylated N-terminal-His6 tagged VEGFR2 catalytic domain using 5-FAM-EEPLYWSFPAKKK-CONH2 as substrate after 60 mins by mobility shift assay
Sequence (P35968 whole entry, the tested form may be a part): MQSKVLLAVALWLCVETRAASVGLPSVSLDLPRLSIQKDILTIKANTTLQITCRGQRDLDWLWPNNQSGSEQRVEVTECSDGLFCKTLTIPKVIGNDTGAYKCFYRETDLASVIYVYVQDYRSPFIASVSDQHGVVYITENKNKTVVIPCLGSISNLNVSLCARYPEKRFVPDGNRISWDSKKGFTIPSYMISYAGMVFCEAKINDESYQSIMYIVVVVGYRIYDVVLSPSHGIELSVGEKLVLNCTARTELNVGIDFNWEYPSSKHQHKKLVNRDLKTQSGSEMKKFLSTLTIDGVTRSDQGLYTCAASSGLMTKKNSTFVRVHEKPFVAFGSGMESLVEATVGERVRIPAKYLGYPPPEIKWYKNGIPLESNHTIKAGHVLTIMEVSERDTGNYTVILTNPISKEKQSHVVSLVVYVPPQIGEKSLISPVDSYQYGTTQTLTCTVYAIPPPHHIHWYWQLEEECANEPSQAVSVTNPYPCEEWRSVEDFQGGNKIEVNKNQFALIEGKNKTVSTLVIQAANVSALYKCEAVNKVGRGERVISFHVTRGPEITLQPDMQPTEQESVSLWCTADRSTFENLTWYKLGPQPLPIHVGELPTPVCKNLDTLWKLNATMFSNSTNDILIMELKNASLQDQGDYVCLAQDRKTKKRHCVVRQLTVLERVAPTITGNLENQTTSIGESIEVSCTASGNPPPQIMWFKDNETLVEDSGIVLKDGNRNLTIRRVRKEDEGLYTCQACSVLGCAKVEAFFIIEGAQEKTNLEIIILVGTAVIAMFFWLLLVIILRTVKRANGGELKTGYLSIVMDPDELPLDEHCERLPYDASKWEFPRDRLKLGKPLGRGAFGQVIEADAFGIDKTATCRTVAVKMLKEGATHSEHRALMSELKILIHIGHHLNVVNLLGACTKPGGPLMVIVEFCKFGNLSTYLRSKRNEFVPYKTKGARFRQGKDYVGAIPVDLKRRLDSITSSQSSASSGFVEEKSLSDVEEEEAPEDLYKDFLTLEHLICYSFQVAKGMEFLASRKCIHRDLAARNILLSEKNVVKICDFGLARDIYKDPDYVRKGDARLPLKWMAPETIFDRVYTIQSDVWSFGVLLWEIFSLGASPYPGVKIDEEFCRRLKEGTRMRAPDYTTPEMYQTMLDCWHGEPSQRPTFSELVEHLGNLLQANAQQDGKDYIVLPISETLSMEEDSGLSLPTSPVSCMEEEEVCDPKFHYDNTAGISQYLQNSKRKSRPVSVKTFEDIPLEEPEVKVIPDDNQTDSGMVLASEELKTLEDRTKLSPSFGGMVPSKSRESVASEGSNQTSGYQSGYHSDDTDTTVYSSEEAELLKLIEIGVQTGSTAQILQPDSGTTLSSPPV
pIC50: −log10 of the molar value.
observedProperty: pIC50

structureAsSmiles: c1ccc2c3c([nH]c2c1)-c1n[nH]cc1CCC3
assayResult: 6.07
--
structureAsSmiles: Cc1oc(-c2ccccc2)nc1COc1cccc(CO)c1
assayResult: < 4.00
--
structureAsSmiles: O=C(Nc1cccc(C(F)(F)F)c1)Nc1ccccc1Cl
assayResult: < 4.00

###

target: Vascular endothelial growth factor receptor 2 (Homo sapiens); test: Inhibition of human unphosphorylated N-terminal-His6 tagged VEGFR2 catalytic domain using 5-FAM-EEPLYWSFPAKKK-CONH2 as substrate after 60 mins by mobility shift assay
pKi: −log10 of the molar value.

structureAsSmiles: Cc1oc(-c2ccccc2)nc1COc1cccc(CO)c1
assayTarget: Vascular endothelial growth factor receptor 2 (Homo sapiens)
pKi: 4.60
